Attribution: ChEMBL document CHEMBL1961873

target: Testis-specific serine/threonine-protein kinase 2 (Homo sapiens) (UniProt Q96PF2); conditions: at 0.1 µM;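 also: values are mean inhibition of TSSK2 activity from the GSK PKIS profiling panel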
Sequence (Q96PF2 whole entry): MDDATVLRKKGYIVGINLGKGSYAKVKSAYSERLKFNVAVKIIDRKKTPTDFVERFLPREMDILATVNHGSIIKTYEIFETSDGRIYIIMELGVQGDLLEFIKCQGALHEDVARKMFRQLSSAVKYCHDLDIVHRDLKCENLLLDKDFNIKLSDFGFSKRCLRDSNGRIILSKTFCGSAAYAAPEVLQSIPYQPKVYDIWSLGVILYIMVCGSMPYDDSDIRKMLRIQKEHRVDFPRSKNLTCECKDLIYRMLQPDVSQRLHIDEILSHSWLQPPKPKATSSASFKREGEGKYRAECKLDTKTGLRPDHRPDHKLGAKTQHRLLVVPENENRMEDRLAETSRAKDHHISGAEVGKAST
Recorded inhibition values for a group of molecules are listed next.
Enter your answer as a number in %; do not include the unit.

Record excerpt, results attached:
Structure Smiles String: COC(=O)Nc1nc2ccc(Oc3ccc(NC(=O)Nc4cc(C(F)(F)F)ccc4F)cc3)cc2s1
Result Units: %
Numeric Value: -1.47
--
Structure Smiles String: Cc1cc(O)cc(C)c1/C=C/c1cncc(C(=O)OC(C)(C)C)c1
Result Units: %
Numeric Value: 1.48
--
Structure Smiles String: COc1cc(Nc2ncc(-c3ccccc3)o2)cc(OC)c1
Result Units: %
Numeric Value: 2.32
--
Structure Smiles String: Cc1nnc(-c2cccc(-c3ccc(C(=O)NCC4CC4)cc3)c2)o1
Result Units: %
Numeric Value: 2.89
--
Structure Smiles String: CC1(C)CC(n2cnc(-c3ccc(F)cc3)c2-c2ccnc(N)n2)CC(C)(C)N1
Result Units: %
Numeric Value: 0.62
--
Structure Smiles String: c1ccc(-c2n[nH]cc2-c2ccnc(-c3ccc(OCCn4ccnc4)cc3)c2)nc1
Result Units: %
Numeric Value: 2.08

Can you share its inhibition? I mean this molecule: `OCCCNc1nccc(-c2c(-c3ccc(F)cc3)nn3cc(C(F)(F)F)ccc23)n1`
1.56

Can you share its inhibition? I mean this molecule: `COc1c(C(N)=O)cc(-c2ccc(Cl)cc2)cc1-c1ccc(S(N)(=O)=O)cc1`
2.57
